testedOn: c-Met kinase (Homo sapiens)
Construct: recombinant N-terminal 6×His-tagged c-Met kinase domain construct expressed from baculovirus; 6xHis (N); made in house
Sequence (P08581 1078-1345 limits assumed): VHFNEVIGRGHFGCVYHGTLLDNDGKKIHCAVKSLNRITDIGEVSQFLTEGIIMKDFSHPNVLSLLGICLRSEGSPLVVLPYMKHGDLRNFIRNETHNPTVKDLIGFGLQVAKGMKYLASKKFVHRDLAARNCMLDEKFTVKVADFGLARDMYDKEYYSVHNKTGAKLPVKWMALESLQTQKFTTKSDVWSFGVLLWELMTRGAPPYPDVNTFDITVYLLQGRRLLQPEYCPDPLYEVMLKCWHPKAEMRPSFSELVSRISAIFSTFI
protocolText: c-Met kinase assay (33P incorporation into Poly(Glu-Tyr))
Assay type: biochemical
experimentalSetup: 500 nM test compound
Please respond with reported inhibition at 0.5 µM for every item in the list.

Inquiry: What value of measured inhibition at 0.5 µM is listed for CCOC(=O)CCc1c(/C=C2\C(=O)Nc3cc(Br)ccc32)[nH]c2c1C(=O)CCC2 ?
Reply text: 4.2%

Inquiry: What value of measured inhibition at 0.5 µM is listed for CC(=O)c1c(C)[nH]c(/C=C2\C(=O)Nc3ccc(F)cc32)c1CCC(=O)O ?
Reply text: 8.8%

Inquiry: What value of measured inhibition at 0.5 µM is listed for O=C(O)CCc1c(/C=C2\C(=O)Nc3ccc(NS(=O)(=O)c4cc(Cl)cc(Cl)c4)cc32)[nH]c2c1C(=O)CCC2 ?
Reply text: 12.9%

Inquiry: What value of measured inhibition at 0.5 µM is listed for CCOC(=O)CCc1c(/C=C2\C(=O)Nc3ccc(/N=C/c4ccc(F)c(C(F)(F)F)c4)cc32)[nH]c2c1C(=O)CCC2 ?
Reply text: 7.8%

Inquiry: What value of measured inhibition at 0.5 µM is listed for COc1ccc(-c2ccc3c(c2)/C(=C/c2[nH]c4c(c2CCC(=O)O)C(=O)CCC4)C(=O)N3)cc1OC ?
Reply text: 18%

Inquiry: What value of measured inhibition at 0.5 µM is listed for CN(c1cccc(Cl)c1)S(=O)(=O)c1ccc2c(c1)/C(=C/c1[nH]c3c(c1CCC(=O)O)C(=O)CCCC3)C(=O)N2 ?
Reply text: 74.9%

Inquiry: What value of measured inhibition at 0.5 µM is listed for COc1ccc2c(c1)/C(=C/c1[nH]c3c(c1CCC(=O)O)C(=O)CCCC3)C(=O)N2 ?
Reply text: 9.1%

Inquiry: What value of measured inhibition at 0.5 µM is listed for CCOC(=O)CCc1c(/C=C2\C(=O)Nc3ccc(-c4ccc(OC)c(OC)c4)cc32)[nH]c2c1C(=O)CCC2 ?
Reply text: 17%

Inquiry: What value of measured inhibition at 0.5 µM is listed for O=C(O)CCc1c(/C=C2\C(=O)Nc3ccc(NCc4ccccc4)cc32)[nH]c2c1C(=O)CCC2 ?
Reply text: 13.7%
